The origin of these recorded values is PubChem BioAssay AID1159580.

Exercise: state measured normalized growth for each of the compounds provided.
- assay: chemical genetic growth profiling, strain panel (AID 1159580);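 further: tested at 20 µM; growth read once vehicle control cultures reached saturation at 30 °C; 1 = growth at the plate median or of vehicle wells; lower values mean less growth of the strain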
- condition details: S. cerevisiae deletion strains, growth OD, locus YBR160W, strain CDC28, hits give low values
Among all 5,500 compounds or so, about 2,000 (36%) were called active. About 18% were inconclusive and are not listed. Some of the results follow.
Quick one: just the number, no unit, thanks!

For record O=C1Nc2ccccc2/C1=N/N=C\c1cc(Br)cc(Br)c1O the listed normalized growth is 0.959

For record CCC(C)COC(=O)/C=C/c1ccc(N=Cc2ccc(OC)cc2)cc1 (stereo not drawn) the listed normalized growth is 0.978

For record O=C(NCc1cccs1)c1csc(Cc2c(Cl)cccc2Cl)n1 the listed normalized growth is 0.979

For record CC(C)(C)c1csc(NC(=O)c2ccc(Cl)cc2Cl)n1 the listed normalized growth is 0.983

For record O=C1c2ccccc2O[C@@H](c2ccccc2)[C@@H]1NC1CCCCC1 the listed normalized growth is 0.927

For record COc1ccc(C2CC(c3ccccc3)=Nc3ccccc3S2)cc1OC (stereo not drawn) the listed normalized growth is 0.975

For record Cc1cc(C(=O)O/N=C(/N)CSc2ncccc2C(F)(F)F)no1 the listed normalized growth is 0.988

For record CC(C)CSc1nnc(CSCc2nc(-c3ccc(Cl)cc3)cs2)n1C the listed normalized growth is 0.97

For record N/C(CSc1ccc(Cl)cc1)=N/OC(=O)c1ccc(C(F)(F)F)cc1 the listed normalized growth is 0.874

For record Cc1ccc(C(=O)O/N=C(/N)CSc2ncccc2C(F)(F)F)cc1 the listed normalized growth is 1

For record COc1cc(NC(=S)Nc2ccccc2OC(F)(F)F)cc(C(F)(F)F)c1 the listed normalized growth is 0.972

For record C/C(=N/Nc1nc(C(C)(C)C)cs1)c1ccc(Cl)c(Cl)c1 the listed normalized growth is 0.987

For record N/C(CSc1ncccc1C(F)(F)F)=N/OC(=O)Nc1cccc(Cl)c1 the listed normalized growth is 0.995

----------
Exercise: state measured normalized growth for each of the compounds provided.
- assay: chemical genetic growth profiling, strain panel (AID 1159580);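 further: tested at 20 µM; growth read once vehicle control cultures reached saturation at 30 °C; 1 = growth at the plate median or of vehicle wells; lower values mean less growth of the strain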
- condition details: S. cerevisiae deletion strains, growth OD, locus YLR262C, strain YPT6, hits give low values
The whole screen tested about 5,500 compounds, of which about 2,000 (36%) were called active. About 18% were inconclusive and are not listed. The list shows a part of the results.

For record CN1CCN2c3ccccc3Cc3ccccc3C2C1 (centres undefined) the listed normalized growth is 1.05 (inactive)

For record CN1CCOC(c2ccccc2)c2ccccc2C1 (centres undefined) the listed normalized growth is 1.02 (inactive)

For record O=C1CCCc2c1c1ccccc1n2Cc1ccccc1 the listed normalized growth is 0.75 (active)

For record CN1CCc2c(c3ccccc3n2Cc2ccccc2)C1 the listed normalized growth is 1.56 [resistant] (active)

For record OC1C(O)C(O)C(O)C(O)C1O (centres undefined) the listed normalized growth is 0.962 (inactive)

For record COc1cccc2c1cc([N+](=O)[O-])c1c(C(=O)O)cc3c(c12)OCO3 the listed normalized growth is 1.07 (inactive)

For record O=C1CCCc2c1nc(-c1ccccc1)n2O the listed normalized growth is 1.06 (inactive)

For record COc1cc([C@@H]2c3cc4c(cc3[C@H](O)[C@H]3COC(=O)[C@@H]23)OCO4)cc(OC)c1OC the listed normalized growth is 0.991 (inactive)

For record CC(=O)O[C@H]1C[C@H](O[C@H]2[C@@H](O)C[C@H](O[C@H]3[C@@H](O)C[C@H](O[C@H]4CC[C@@]5(C)C(CCC6C5C[C@@H](O)[C@]5(C)[C@@H](C7=CC(=O)OC7)CC[C@]65O)C4)O[C@@H]3C)O[C@@H]2C)O[C@H](C)[C@H]1O[C@@H]1O[C@H](CO)[C@@H](O)[C@H](O)[C@H]1O (some centres undefined) the listed normalized growth is 1.04 (inactive)
